# measurement-target: human glypican-3 (GPC3) (human, UniProt P51654 25-554); note: test concentration or dose not given here
# method: cell-based or functional assay
readout-type: JHH-7 Internalization (MFI), Day 0 in mouse plasma

binder	unit-spec	obs-value
H18L6_LC_G34D mAb, v40203 (antibody, human IgG1, kappa, V domains shown) VH: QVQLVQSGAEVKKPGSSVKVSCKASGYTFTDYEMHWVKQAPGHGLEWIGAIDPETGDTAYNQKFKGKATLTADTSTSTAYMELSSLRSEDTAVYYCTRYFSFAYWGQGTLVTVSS VL: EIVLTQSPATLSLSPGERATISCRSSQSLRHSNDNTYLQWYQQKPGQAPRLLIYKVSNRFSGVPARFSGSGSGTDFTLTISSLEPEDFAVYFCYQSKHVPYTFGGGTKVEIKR	MFI	104
H18L6_LC_G34K mAb, v40207 (antibody, human IgG1, kappa, V domains shown, Full-size IgG1/kappa) VH: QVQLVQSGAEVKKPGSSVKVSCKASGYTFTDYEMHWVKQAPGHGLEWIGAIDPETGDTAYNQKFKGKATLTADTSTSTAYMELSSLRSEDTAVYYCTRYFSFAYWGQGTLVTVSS VL: EIVLTQSPATLSLSPGERATISCRSSQSLRHSNKNTYLQWYQQKPGQAPRLLIYKVSNRFSGVPARFSGSGSGTDFTLTISSLEPEDFAVYFCYQSKHVPYTFGGGTKVEIKR	MFI	143
